- Assay Protocol: Solubility in water and organic solvents
- Type: physicochemical
- Experimental Parameters: water
Endpoint Name: solubility in water

Example molecules with recorded solubility in water:
The reported value for Oc1ccc2ccccc2c1C=NNc1nc2ccccc2nc1Cl [RM8] in terms of solubility in water is insoluble

The reported value for Clc1nc2ccccc2nc1NN=Cc1ccccn1 [RM10] in terms of solubility in water is insoluble

The reported value for Oc1ccc2ccccc2c1C=NNc1nc2ccccc2nc1Cl [RM7] in terms of solubility in water is insoluble

The reported value for Clc1nc2ccccc2nc1NN=Cc1ccco1 in terms of solubility in water is insoluble

Hello, I would appreciate it if you could give solubility in water for each entry below.
1. COc1cccc(C=NNc2nc3ccccc3nc2Cl)c1O
2. Oc1ccccc1C=NNc1nc2ccccc2nc1Cl
3. Clc1nc2ccccc2nc1NN=Cc1ccccn1 [RM11]

Result:
["insoluble", "insoluble", "insoluble"]

----------
- Assay Protocol: Stability at room temperature
- Assay type: physicochemical
Endpoint Name: stability at room temperature

Example molecules with recorded stability at room temperature:
The reported value for Oc1ccc2ccccc2c1C=NNc1nc2ccccc2nc1Cl [RM7] in terms of stability at room temperature is stable

The reported value for Clc1nc2ccccc2nc1NN=Cc1ccccn1 [RM10] in terms of stability at room temperature is stable

The reported value for Clc1nc2ccccc2nc1NN=Cc1ccco1 in terms of stability at room temperature is stable

The reported value for Oc1ccccc1C=NNc1nc2ccccc2nc1Cl in terms of stability at room temperature is stable

The reported value for Oc1ccc2ccccc2c1C=NNc1nc2ccccc2nc1Cl [RM8] in terms of stability at room temperature is stable

Hello, I would appreciate it if you could give stability at room temperature for each entry below.
1. COc1cccc(C=NNc2nc3ccccc3nc2Cl)c1O
2. Clc1nc2ccccc2nc1NN=Cc1ccccn1 [RM11]

Result:
1. stable
2. stable

----------
- System: ovarian cancer cell line A2780
- Assay Protocol: MTT assay, ovarian cancer cell line A2780
- Type: cell-based, human
- Experimental Parameters: 30 μg/ml, n = 3, A2780
Endpoint Name: Percent surviving cells of DMSO control (Mean) (%)
Answers are plain numbers, in %.

The reported value for Oc1ccccc1C=NNc1nc2ccccc2nc1Cl in terms of Percent surviving cells of DMSO control (Mean) is 0.4

The reported value for Clc1nc2ccccc2nc1NN=Cc1ccco1 in terms of Percent surviving cells of DMSO control (Mean) is 0.7

The reported value for Clc1nc2ccccc2nc1NN=Cc1ccccn1 [RM11] in terms of Percent surviving cells of DMSO control (Mean) is 0.7

The reported value for Oc1ccc2ccccc2c1C=NNc1nc2ccccc2nc1Cl [RM7] in terms of Percent surviving cells of DMSO control (Mean) is 0.9

The reported value for Oc1ccc2ccccc2c1C=NNc1nc2ccccc2nc1Cl [RM8] in terms of Percent surviving cells of DMSO control (Mean) is 0.1

The reported value for COc1cccc(C=NNc2nc3ccccc3nc2Cl)c1O in terms of Percent surviving cells of DMSO control (Mean) is 0.2

API: the following record is the query input.
The reported value for Clc1nc2ccccc2nc1NN=Cc1ccccn1 [RM10] in terms of Percent surviving cells of DMSO control (Mean) is 1

Where do these numbers come from? They come from patent US20100209537A1.
